Target: human IGF-1R, native, on cells (MCF-7, hIGF-1R transfected cells, primary normal human cells) (human, UniProt P08069 31-1367)
Assay: cell-based or functional assay
I'd appreciate it if you could supply MCF7 internalisation assay: % remaining rh IGF1R values for the items below.
Express your answer as a number followed by its unit.

Challenge: Indicate the recorded MCF7 internalisation assay: % remaining rh IGF1R value for this binder: murine antibody 219D6 (hybridoma CNCM I-4736) (antibody, V domains shown, also called m219D6) VH: QVQLQQSGPELVKPGDSVKMSCKASGYSFTSYFIHWVKQRPGQGLEWIGWIWPGDGSTKYNEKFKGKTTLTTDKSSSTAYMFLNSLTSEDSAVYFCASPMITPNYAMDYWGQGASVTVSS VL: DIQMTQTTSSLSASLGDRVTISCRASQDISKYLNWYQQQPDGTVKLLIYYTSRLHSGVPSRFSGRGSGTDYSLTISNLEQEDIATYFCQQGSTLPYTFGGGTKLEIK
Response given: 30%

Challenge: Indicate the recorded MCF7 internalisation assay: % remaining rh IGF1R value for this binder: murine antibody 208F2 (hybridoma CNCM I-4757) (antibody, V domains shown, also called m208F2) VH: QVQLQQSGPELVKPGASVKMSCKASGYTFTSYYIYWVKQRPGQGLEWLGWIWPGDGSTKYNEKFKDKTTLTADKSSNTAYMFLSSLTSEDSAVYFCASPMITPNYAMDYWGQGASVTVSS VL: DIQMTQTTSSLSASLGDRVTISCRASQDISKYLNWYQQQPDGTIKLLIYYTSRLHSGVPSRFSGRGSGTDYSLTISNVEQEDIATYFCQQGSTLPYTFGGGTKLEIK
Response given: 27%

Challenge: Indicate the recorded MCF7 internalisation assay: % remaining rh IGF1R value for this binder: murine antibody 213B10 (hybridoma CNCM I-4774) (antibody, V domains shown, also called m213B10) VH: QVQLQQSGSELVKPGASVKMSCKASGYTFTSYYIHWVKQRPGQGLEWIGWIWPGDGSTKYNERFKGKTTLTADKSSSTAYMFLSSLTSEDSAVYFCASPMITPNYAMDYWGQGASVTVSS VL: DIQMTQTTSSLSASLGDRVTISCRASQDISKYLNWYQQQPDGTIKLLIYYTSRLHSGVPSRFSGRGSGTDYSLTITNLEQEDIATYFCQQGSALPYTFGGGTKLEIK
Response given: 30%
